Data origin: patent US20200131129A1

target-or-test-system: hFXR (Homo sapiens, UniProt Q96RI1)
Sequence (Q96RI1 whole entry): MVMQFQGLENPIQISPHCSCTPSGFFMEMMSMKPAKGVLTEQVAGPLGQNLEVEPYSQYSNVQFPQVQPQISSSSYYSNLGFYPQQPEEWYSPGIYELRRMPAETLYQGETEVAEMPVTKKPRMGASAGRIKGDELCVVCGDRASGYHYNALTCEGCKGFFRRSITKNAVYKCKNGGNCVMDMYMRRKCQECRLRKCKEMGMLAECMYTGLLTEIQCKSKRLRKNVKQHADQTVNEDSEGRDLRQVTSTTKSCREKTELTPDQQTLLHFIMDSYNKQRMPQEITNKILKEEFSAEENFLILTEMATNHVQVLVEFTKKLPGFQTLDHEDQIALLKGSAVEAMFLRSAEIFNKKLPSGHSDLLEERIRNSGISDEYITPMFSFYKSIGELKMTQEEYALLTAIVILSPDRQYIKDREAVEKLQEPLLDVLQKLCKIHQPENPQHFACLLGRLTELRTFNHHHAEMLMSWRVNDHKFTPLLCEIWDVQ
Sequence (P19793 whole entry partner): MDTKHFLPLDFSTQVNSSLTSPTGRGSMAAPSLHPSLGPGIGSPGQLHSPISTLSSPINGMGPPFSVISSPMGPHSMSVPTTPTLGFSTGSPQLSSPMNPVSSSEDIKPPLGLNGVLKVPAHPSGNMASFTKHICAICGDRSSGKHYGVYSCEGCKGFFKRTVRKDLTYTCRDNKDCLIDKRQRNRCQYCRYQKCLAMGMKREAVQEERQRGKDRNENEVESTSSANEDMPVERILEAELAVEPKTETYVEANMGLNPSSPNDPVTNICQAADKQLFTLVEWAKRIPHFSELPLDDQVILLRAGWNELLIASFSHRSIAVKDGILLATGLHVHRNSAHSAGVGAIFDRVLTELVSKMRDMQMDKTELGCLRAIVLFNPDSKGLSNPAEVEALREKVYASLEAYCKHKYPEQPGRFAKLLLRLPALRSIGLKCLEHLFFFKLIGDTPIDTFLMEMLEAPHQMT
assay-explanation: In Vitro FXR Assay (TK): hFXR/hRXR TK-ECRE-luc reporter in transfected CV-1 cells
test-parameters: CV-1 cells transfected with hFXR, hRXR, 18 hrs incubation, luminescence, maximum efficacy <25% of Fexarmine control also classified as ‘+’
pEC50: −log10 of the molar value.
Consider the following compounds; for each one, report its pEC50.

Query string: # input compound: `COc1ncc(-c2cccc(N(C[C@H]3CC[C@H](c4ccc(OC)c(C)c4)CC3)C(=O)[C@H]3CC[C@H](O)CC3)c2)cn1` ; wanted: its pEC50
Result string: ≥ 6.30

Query string: # input compound: `COc1ccc([C@H]2CC[C@H](CN(c3cccc(-c4coc(C)n4)c3)C(=O)[C@H]3CC[C@H](O)CC3)CC2)cc1C` ; wanted: its pEC50
Result string: ≥ 6.30

Query string: # input compound: `COc1ccc([C@H]2CC[C@H](CN(c3cccc(-c4nnc(C)o4)c3)C(=O)[C@H]3CC[C@H](O)CC3)CC2)cc1C` ; wanted: its pEC50
Result string: ≤ 6.00

Query string: # input compound: `Cn1ccc2cc([C@H]3CC[C@H](CN(c4cccc(-c5coc(C6CC6)n5)c4)C(=O)[C@H]4CC[C@H](O)CC4)CC3)ncc21` ; wanted: its pEC50
Result string: 6.00 to 6.30

Query string: # input compound: `COc1ccc([C@H]2CC[C@H](CN(c3cccc(-c4cc(C5CC5)no4)c3)C(=O)[C@H]3CC[C@H](O)CC3)CC2)cc1C` ; wanted: its pEC50
Result string: ≥ 6.30

Query string: # input compound: `COc1ccc([C@H]2CC[C@H](CN(c3cccc(-c4cc(C5CC5)ns4)c3)C(=O)[C@H]3CC[C@H](O)CC3)CC2)cc1C` ; wanted: its pEC50
Result string: ≥ 6.30

---

target-or-test-system: hFXR (Homo sapiens, UniProt Q96RI1)
assay-explanation: In Vitro FXR Assay (TK): hFXR/hRXR TK-ECRE-luc reporter in transfected CV-1 cells
test-parameters: CV-1 cells transfected with hFXR, hRXR, 18 hrs incubation, luminescence, maximum efficacy <25% of Fexarmine control also classified as ‘+’
pEC50: −log10 of the molar value.
experimental-readout: pEC50

Query string: # input molecule: COc1ccc([C@H]2CC[C@H](CN(c3cccc(-c4ccc(N5CCCC5)nc4)c3)C(=O)[C@H]3CC[C@H](O)CC3)CC2)cc1C [Compound 1.10] ; wanted: its pEC50
Result string: ≥ 6.30

Query string: # input molecule: COc1ccc([C@H]2CC[C@H](CN(c3cccc(-c4nsc(C5CC5)n4)c3)C(=O)[C@H]3CC[C@H](O)CC3)CC2)cc1C [Compound 2.12] ; wanted: its pEC50
Result string: 6.00 to 6.30

Query string: # input molecule: COc1cnc(-c2cccc(N(C[C@H]3CC[C@H](c4ccc(OC)c(C)c4)CC3)C(=O)[C@H]3CC[C@H](O)CC3)c2)nc1 [Compound 2.01] ; wanted: its pEC50
Result string: ≥ 6.30

Query string: # input molecule: COc1ccc([C@H]2CC[C@H](CN(c3cccc(-n4ccc(C)c4)c3)C(=O)[C@H]3CC[C@H](O)CC3)CC2)cc1C [Compound 4] ; wanted: its pEC50
Result string: ≥ 6.30

Query string: # input molecule: COc1ccc([C@H]2CC[C@H](CN(c3cccc(-c4cn(C)nn4)c3)C(=O)[C@H]3CC[C@H](O)CC3)CC2)cc1C [Compound 2.05] ; wanted: its pEC50
Result string: ≤ 6.00

Query string: # input molecule: COc1ccc([C@H]2CC[C@H](CN(c3cccc(-c4cc(C)ns4)c3)C(=O)[C@H]3CC[C@H](O)CC3)CC2)cc1C [Compound 2.06] ; wanted: its pEC50
Result string: ≥ 6.30
